// provenance: patent US12692274B2

System: NQO1 activation in BEAS-2B cells
Experiment: BEAS-2B cellular MTT assay of NQO1 activation, 0% HSA
Type: cell-based
Conditions: Homo sapiens, serum free, read-out: BEAS EC50 (nM) serum free
The compounds listed here are annotated with their EC50.

compound: Cc1c2ccc3c1nnn3CCCCCCOc1ccc(c(F)c1)C(=O)N1CCc3ccc(cc3C1)[C@H]2CC(=O)O
EC50 / nM: 4.8
--
compound: COc1cc2ccc1CCCCCCn1nnc3c(C)c(cnc31)C(CC(=O)O)c1ccc3c(c1)CN(CC3)C2=O (stereo not shown)
EC50 / nM: 9.3
--
compound: Cn1c2cc3cc(cnc31)CCCCCOc1ccc(cn1)C(CC(=O)O)c1ccc3c(c1)CN(CC3)C2=O (racemic)
EC50 / nM: 18.2
--
compound: C[C@H](C(=O)O)[C@H]1c2ccc3c(c2)CN(CC3)C(=O)c2ccc(cc2)OCCCCCCn2nnc3cc1ccc32
EC50 / nM: 135

----------
Test system: NQO1 activation in BEAS-2B cells
Assay: BEAS-2B cellular MTT assay of NQO1 activation, 0.3% HSA
Format: cell-based
Conditions: Homo sapiens, BEAS+, read-out: BEAS+ EC50
Quick list: log10 of EC50 per entry.
measured.attribute: log10 of EC50 (log10 of the value in nM)

compound: Cc1cc2ccc1C(=O)N1CCc3ccc(cc3C1)C(CC(=O)O)c1ccc(nc1)OCCCCO2 (centres unmarked) [Compound 209]
log10 of EC50: 2.93
//
compound: Cc1c2ccc3c1nnn3CCCCCCc1ccc(cc1)C(=O)N1CCc3ccc(cc3C1)[C@H]2[C@H](C)C(=O)O [Compound 134]
log10 of EC50: 1.91
//
compound: O=C(O)CC1c2ccc(nc2)OCCCCCc2cnc(c(F)c2)C(=O)N2CCc3ccc1cc3C2 (centres unmarked) [Compound 194]
log10 of EC50: 3.03
//
compound: Cc1nc2ccc1C(CC(=O)O)c1ccc3c(c1)CN(CC3)C(=O)c1c(F)cc(cc1F)OCCCCO2 (centres unmarked) [Compound 180]
log10 of EC50: 3.11
//
compound: Cc1c2ccc3c1nnn3CCCCCc1ccc(cc1F)C(=O)N1CCc3ccc(cc3C1)C2CC(=O)O (centres unmarked) [Compound 267]
log10 of EC50: 0.72
//
compound: Cc1cc2ccc1C(=O)N1CCc3ccc(cc3C1)C(CC(=O)O)c1cnc3c(nnn3CCCCCCO2)c1C (centres unmarked) [Compound 218]
log10 of EC50: 1.47
//
compound: Cn1c2cc3cc(cnc31)CCCCCn1nnc3c(Cl)c(ccc31)C(CC(=O)O)c1ccc3c(c1)CN(CC3)C2=O (centres unmarked) [Compound 174]
log10 of EC50: 1.47
//
compound: Cc1c2ccc3c1nnn3CCCOCCOc1ccc(c(F)c1)C(=O)N1CCc3ccc(cc3C1)C2CC(=O)O (centres unmarked) [Compound 383]
log10 of EC50: 2.29
//
compound: Cc1c2ccc3c1nnn3CCCCCc1ccc(cc1)C(=O)N1CCc3ccc(cc3C1)[C@@H]2[C@H](C)C(=O)O [Compound 160]
log10 of EC50: 1.09
//
compound: Cn1c2cc3cc(cnc31)CCCCCOc1ccc(cn1)C(CC(=O)O)c1ccc3c(c1)CN(CC3)C2=O (racemic) [Compound 158]
log10 of EC50: 2.61
//
compound: O=C(O)CC1c2ccc(nc2)OCCCCCc2ccc(cc2)C(=O)N2CCc3ccc1cc3C2 (centres unmarked) [Compound 300]
log10 of EC50: 1.03
//
compound: CC(C)(C(=O)O)C1c2ccc3c(c2)CN(CC3)C(=O)c2ccc(cc2F)OCCCCCCn2nnc3cc1ccc32 (centres unmarked) [Compound 288]
log10 of EC50: 1.54
//
compound: COc1cc2ccc1CCCCCCn1nnc3c(C)c(cnc31)C(CC(=O)O)c1ccc3c(c1)CN(CC3)C2=O (centres unmarked) [Compound 104]
log10 of EC50: 1.21
